# System: human Factor 7 mRNA
# PROCEDURE_TEXT: Antisense inhibition of human Factor 7 mRNA in HepB3 cells, lipofectin, 50 nM, real-time RT-PCR
# Assay type: cell-based
# RUN_CONDITIONS: HepB3 cells, lipofectin, 50 nM antisense oligonucleotide, approximately 24 hours, primer probe set RTS 2927, relative to untreated control
In the oligonucleotide strings, read from the 5' end, every base follows the letter of its sugar. An asterisk marks phosphorothioate; unmarked linkages are phosphodiester. Other units and linkages are bracketed, terminal groups are in braces. A string of capitals states the bases alone. e = 2'-O-(2-methoxyethyl) (MOE); [5mC] = 5-methylcytosine; d = 2'-deoxy (DNA)
Some substances, each annotated with its measured % Inhibition of human Factor 7 mRNA levels.
Unit % implied. Number only.

Please review the entries below; each comes with its answer.
INSERT INTO results (substance, measurement_units, measured) VALUES
  ('416537 (antisense eT*eG*eA*e[5mC]*e[5mC]*dA*d[5mC]*dT*d[5mC]*dT*dT*d[5mC]*d[5mC]*dG*dA*eG*e[5mC]*eA*eG*e[5mC]) [compound 416537]', '%', 55),
  ('416478 (antisense eG*eT*e[5mC]*eT*e[5mC]*d[5mC]*dA*dG*d[5mC]*dA*dA*dT*dG*dA*dA*eG*eG*e[5mC]*eA*eG) [compound 416478]', '%', 44),
  ('416520 (antisense e[5mC]*e[5mC]*e[5mC]*eT*e[5mC]*dT*dG*d[5mC]*dA*dA*dA*dT*dA*dT*dG*eG*eG*eA*e[5mC]*e[5mC]) [compound 416520]', '%', 14);

System human Factor 7 mRNA. Read-out % Inhibition of human Factor 7 mRNA levels. Item 416460 (antisense e[5mC]*eA*e[5mC]*e[5mC]*eA*d[5mC]*dA*dT*dG*dG*dT*d[5mC]*dA*dG*dT*eG*eA*eG*eG*eA) [compound 416460] . Report value.
49

System human Factor 7 mRNA. Read-out % Inhibition of human Factor 7 mRNA levels. Item 416514 (antisense eG*eT*eA*eT*eT*dT*dT*d[5mC]*dT*dG*dA*dT*dG*dT*dG*eA*eA*eA*eA*e[5mC]) [compound 416514] . Report value.
8
